The entries below come with measured MIC values attached.
# Tested on: Staphylococcus aureus
# TEST SUMMARY: Antibacterial activity against methicillin-sensitive Staphylococcus aureus assessed as complete reduction in bacterial cell growth by CLSI protocol based broth liquid microdilution method
# Assay type: functional
MEASURED PARAMETER: MIC (µg/mL)

[
  {
    "SMILES STRUCTURE": "CC(=O)NC[C@H]1CN(c2ccc(-c3ccc(/C=N/N4CCN(C)CC4)cn3)c(F)c2)C(=O)O1",
    "NUMERIC VALUE": 2
  },
  {
    "SMILES STRUCTURE": "CC(=O)NC[C@H]1CN(c2ccc(-c3ccc(/C=N/N4CCNCC4)c(O)c3)c(F)c2)C(=O)O1",
    "NUMERIC VALUE": 0.25
  },
  {
    "SMILES STRUCTURE": "CC(=O)NC[C@H]1CN(c2ccc(-c3ccc(/C=N/N4CCOCC4)c(O)c3)c(F)c2)C(=O)O1",
    "NUMERIC VALUE": 0.25
  },
  {
    "SMILES STRUCTURE": "CC(=O)NC[C@H]1CN(c2ccc(-c3ccc(/C=N/N4CCSCC4)c(C)c3)c(F)c2)C(=O)O1",
    "NUMERIC VALUE": 1
  },
  {
    "SMILES STRUCTURE": "CC(=O)NC[C@H]1CN(c2ccc(-c3ccc(/C=N/N4CCNCC4)c(F)c3)c(F)c2)C(=O)O1",
    "NUMERIC VALUE": 0.5
  },
  {
    "SMILES STRUCTURE": "CC(=O)NC[C@H]1CN(c2ccc(-c3ccc(/C=N/N4CCNCC4)nc3)c(F)c2)C(=O)O1",
    "NUMERIC VALUE": 1
  },
  {
    "SMILES STRUCTURE": "CC(=O)NC[C@H]1CN(c2ccc(-c3ccc(/C=N/N4CCSCC4)nc3)c(F)c2)C(=O)O1",
    "NUMERIC VALUE": 0.25
  }
]
